Activity of reconstituted FVIIIa (% of wt activity) values, listed per item
Molecular target: T1, A1/A3-C1-C2 heterodimer of factor VIII, plasma-derived (human, UniProt P00451 20-391; P00451 1709-2351)
T1 sequence 1: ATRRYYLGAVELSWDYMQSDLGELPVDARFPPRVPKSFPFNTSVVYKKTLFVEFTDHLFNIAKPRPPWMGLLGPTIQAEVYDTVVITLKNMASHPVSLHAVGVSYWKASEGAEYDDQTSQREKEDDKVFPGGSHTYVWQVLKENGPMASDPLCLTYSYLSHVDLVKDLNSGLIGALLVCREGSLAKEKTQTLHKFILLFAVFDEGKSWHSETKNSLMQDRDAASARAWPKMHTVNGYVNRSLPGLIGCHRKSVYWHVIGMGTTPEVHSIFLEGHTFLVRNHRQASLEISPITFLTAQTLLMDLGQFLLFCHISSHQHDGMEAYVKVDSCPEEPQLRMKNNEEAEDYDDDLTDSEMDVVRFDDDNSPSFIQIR
T1 sequence 2: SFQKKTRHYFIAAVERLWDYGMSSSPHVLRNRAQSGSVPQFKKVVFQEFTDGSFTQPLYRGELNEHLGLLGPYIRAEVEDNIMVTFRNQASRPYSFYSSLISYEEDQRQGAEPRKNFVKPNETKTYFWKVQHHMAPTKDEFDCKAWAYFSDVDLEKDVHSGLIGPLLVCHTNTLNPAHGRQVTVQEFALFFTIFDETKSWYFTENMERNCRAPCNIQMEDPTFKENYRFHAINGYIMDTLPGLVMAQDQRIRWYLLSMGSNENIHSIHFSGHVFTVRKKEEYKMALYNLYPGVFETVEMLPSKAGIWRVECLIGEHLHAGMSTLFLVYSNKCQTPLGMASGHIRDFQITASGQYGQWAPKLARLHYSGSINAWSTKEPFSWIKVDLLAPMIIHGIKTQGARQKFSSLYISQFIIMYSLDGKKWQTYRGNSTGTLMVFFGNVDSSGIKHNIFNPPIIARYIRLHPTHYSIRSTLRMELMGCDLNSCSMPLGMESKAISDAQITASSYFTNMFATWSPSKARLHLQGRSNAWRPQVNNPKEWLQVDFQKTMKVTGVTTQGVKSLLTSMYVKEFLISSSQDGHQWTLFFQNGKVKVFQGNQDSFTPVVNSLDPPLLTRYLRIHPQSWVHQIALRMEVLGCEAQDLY
Test: cell-based or functional assay

Study these solved cases before continuing.
binder	endpoint.result
recombinant A2 mutant #20 (Lys-556 to Ala) (other, hx-A2 form from Sf9 cells; not shown: N-terminal hx leader (6xHis tag, vector-derived linker, factor Xa site)) SGAKKHPKTWVHYIAAEEEDWDYAPLVLAPDDRSYKSQYLNNGPQRIGRKYKKVRFMAYTDETFKTREAIQHESGILGPLLYGEVGDTLLIIFKNQASRPYNIYPHGITDVRPLYSRRLPKGVKHLKDFPILPGEIFKYKWTVTVEDGPTKSDPRCLTRYYSSFVNMERDLASGLIGPLLICYAESVDQRGNQIMSDKRNVILFSVFDENRSWYLTENIQRFLPNPAGVQLEDPEFQASNIMHSINGYVFDSLQLSVCLHEVAYWYILSIGAQTDFLSVFFSGYTFKHKMVYEDTLTLFPFSGETVFMSMENPGLWILGCHNSDFRNRGMTALLKVSSCDKNTGDYYEDSYEDISAYLLSKNNAIEPR	196 % of wt activity
recombinant A2 mutant #11 (Arg-490 to Ala) (other, hx-A2 form from Sf9 cells) SGAKKHPKTWVHYIAAEEEDWDYAPLVLAPDDRSYKSQYLNNGPQRIGRKYKKVRFMAYTDETFKTREAIQHESGILGPLLYGEVGDTLLIIFKNQASRPYNIYPHGITDVRPLYSRALPKGVKHLKDFPILPGEIFKYKWTVTVEDGPTKSDPRCLTRYYSSFVNMERDLASGLIGPLLICYKESVDQRGNQIMSDKRNVILFSVFDENRSWYLTENIQRFLPNPAGVQLEDPEFQASNIMHSINGYVFDSLQLSVCLHEVAYWYILSIGAQTDFLSVFFSGYTFKHKMVYEDTLTLFPFSGETVFMSMENPGLWILGCHNSDFRNRGMTALLKVSSCDKNTGDYYEDSYEDISAYLLSKNNAIEPR	151 % of wt activity
recombinant A2 mutant #15 (His-497 to Ala) (other, hx-A2 form from Sf9 cells) SGAKKHPKTWVHYIAAEEEDWDYAPLVLAPDDRSYKSQYLNNGPQRIGRKYKKVRFMAYTDETFKTREAIQHESGILGPLLYGEVGDTLLIIFKNQASRPYNIYPHGITDVRPLYSRRLPKGVKALKDFPILPGEIFKYKWTVTVEDGPTKSDPRCLTRYYSSFVNMERDLASGLIGPLLICYKESVDQRGNQIMSDKRNVILFSVFDENRSWYLTENIQRFLPNPAGVQLEDPEFQASNIMHSINGYVFDSLQLSVCLHEVAYWYILSIGAQTDFLSVFFSGYTFKHKMVYEDTLTLFPFSGETVFMSMENPGLWILGCHNSDFRNRGMTALLKVSSCDKNTGDYYEDSYEDISAYLLSKNNAIEPR	242 % of wt activity

// switching to the query binder
In plain terms, recombinant A2 mutant #8 (Tyr-487 to Ala) (other, hx-A2 form from Sf9 cells) SGAKKHPKTWVHYIAAEEEDWDYAPLVLAPDDRSYKSQYLNNGPQRIGRKYKKVRFMAYTDETFKTREAIQHESGILGPLLYGEVGDTLLIIFKNQASRPYNIYPHGITDVRPLASRRLPKGVKHLKDFPILPGEIFKYKWTVTVEDGPTKSDPRCLTRYYSSFVNMERDLASGLIGPLLICYKESVDQRGNQIMSDKRNVILFSVFDENRSWYLTENIQRFLPNPAGVQLEDPEFQASNIMHSINGYVFDSLQLSVCLHEVAYWYILSIGAQTDFLSVFFSGYTFKHKMVYEDTLTLFPFSGETVFMSMENPGLWILGCHNSDFRNRGMTALLKVSSCDKNTGDYYEDSYEDISAYLLSKNNAIEPR has a documented Activity of reconstituted FVIIIa (% of wt activity) of 87.9 % of wt activity
